Let's look at some compounds and their measured cytotoxicity at 70.5 h.
# Protocol text: Human HepG2 cell viability assay in 384 well format
# Format: toxicity, cell-based
# Design: dose 125 nL, time 70.5 hour; concentration not given beside the values
# Protocol conditions: HepG2 cells, read-out: Inhibition
Recorded endpoint: cytotoxicity at 70.5 h (%)

1) Cc1nc(N2CCCC2)nc2c1CCN(C(=O)C(C)C)CC2 : -15.8
2) Cc1cnn(CC2CCCCN2C(=O)Cn2nc(C)c(Cl)c2C)c1 (stereo unspecified) : -4.01
3) CC(C)Oc1ccccc1C(=O)NC1CC(=O)N(CC(F)(F)F)C1 (stereo unspecified) : -22.6
4) O=C(CCn1ccc2cc(Br)ccc21)NC[C@@H]1CCCN2CCCC[C@H]12 : 19.3
5) Cn1nc(C(=O)N2CCSCC2)cc1NC(=O)c1ccco1 : -5.7
6) Cc1cc(NCCO)nc2[nH]nc(N)c12 : -14.9

----------
# Protocol text: Human HepG2 cell viability assay in 384 well format
# Type: toxicity, cell-based
# Parameters: dose 125 nL, time 70.5 hour; concentration not given beside the values
# Protocol conditions: HepG2 cells, read-out: Inhibition
Entries and their cytotoxicity at 70.5 h
Recorded endpoint: cytotoxicity at 70.5 h (%)

1. COc1ccccc1OCCNCc1c(C(C)C)nn(C)c1N(C)C : 34.1
2. COCCN1CCN(c2ccc(C)nn2)Cc2ccc(C)nc21 : -3.87
3. Cc1cc(C(=O)N2CC[C@H](N3CCOCC3)[C@H](CCCO)C2)c(C)n1C : -16.1
4. Cc1nnsc1CN1C[C@H]2CC[C@@H]1CN(Cc1ccccc1)C2 : -1.08
5. CC1CN(C2CCN(Cc3nccn3CC(F)(F)F)CC2)CCO1 (stereo unspecified) : -9.54
6. COc1cccc(OC)c1C(=O)N1C[C@@H](CN(C)C)[C@@H](CO)C1 : -2.79

----------
# Protocol text: Human HepG2 cell viability assay in 384 well format
# Type: toxicity, cell-based
# Design: dose 125 nL, time 70.5 hour; concentration not given beside the values
# Protocol conditions: HepG2 cells, read-out: Inhibition
In this section we review reported cytotoxicity at 70.5 h values for a set of molecules.
Recorded endpoint: cytotoxicity at 70.5 h (%)

1) CCc1cnc(N2CC[C@@H]3CN(CCC(C)C)S(=O)(=O)[C@@H]3CC2)nc1 : -4.3
2) Cc1nc(NCc2ccc(F)cc2)cc(C2CCCN2)n1 (stereo unspecified) : -2.67
3) Cc1ccc(CN2CCCn3c(nc(Cn4cncn4)cc3=O)C2)s1 : -19.3
4) CCC1(c2ccc(NS(=O)(=O)c3ccc(Cl)s3)cc2)CCC(=O)NC1=O (stereo unspecified) : -11.2
5) Cc1cnn(CC2CN(CC(=O)N(C)Cc3ccccc3)CCO2)c1 (stereo unspecified) : 2.55
6) CC1CCCN(Cc2csc(-c3ncccn3)n2)CC1 (stereo unspecified) : 9.27
7) CCc1noc(CNc2cc(F)ccc2OCC2CCCO2)n1 (stereo unspecified) : -6.07
8) COC(=O)CNC(=O)C(C)Oc1ccccc1C(F)(F)F (stereo unspecified) : -3.31
9) O=C(O)c1cc(-c2ccncc2)cc(S(=O)(=O)NCc2ccccn2)c1 : -4.27
10) O=c1c2ccccc2nnn1CN(CC1CCOC1)C1CC1 (stereo unspecified) : -2.98
11) Cc1n[nH]c(C)c1CCc1nc(C2CC2)n[nH]1 : -6.37
